Where do the numbers come from? From patent US4981788A.

# measuredOn: acetylpolyamine amidohydrolase (the present enzyme, product purified to homogeneity) (Mycoplana ramosa, UniProt Q48935)
# Construct: novel acetylpolyamine amidohydrolase of the present invention accumulated within the grown cells; made in house; host or cells: Mycoplana (natural producer)
# Sequence (Q48935 whole entry): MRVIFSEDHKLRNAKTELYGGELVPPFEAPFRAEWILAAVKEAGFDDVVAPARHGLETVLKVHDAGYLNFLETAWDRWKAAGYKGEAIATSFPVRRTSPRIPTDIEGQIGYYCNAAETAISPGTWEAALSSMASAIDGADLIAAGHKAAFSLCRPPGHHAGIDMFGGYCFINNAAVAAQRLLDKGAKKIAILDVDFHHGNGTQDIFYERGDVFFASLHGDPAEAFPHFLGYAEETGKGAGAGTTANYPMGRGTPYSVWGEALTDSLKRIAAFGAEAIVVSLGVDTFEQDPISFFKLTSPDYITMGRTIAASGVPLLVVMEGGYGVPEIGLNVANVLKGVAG
# test: Enzyme activity on acetylpolyamine substrates, product purified to homogeneity (Method 2 / Method 3)
# Assay type: biochemical, Mycoplana bullata
# reported Substrate concentration at which substrate inhibition was observed; entries follow
readoutKind: Substrate concentration at which substrate inhibition was observed

molecule	recordedResult
CC(=O)NCCCCNCCCN [N^8 -Acetylspermidine]	≥ 1 mM
CC(=O)NCCCNCCCCN [N^1 -Acetylspermidine]	≥ 1 mM
CC(=O)NCCCCCN [Acetylcadaverine]	≥ 1 mM
CC(=O)NCCCNCCCCNCCCN [Acetylspermine]	> 1.6 mM
